target system: G protein-coupled receptor 35 (GPR35) (Homo sapiens, UniProt Q9HC97)
Sequence (Q9HC97 whole entry): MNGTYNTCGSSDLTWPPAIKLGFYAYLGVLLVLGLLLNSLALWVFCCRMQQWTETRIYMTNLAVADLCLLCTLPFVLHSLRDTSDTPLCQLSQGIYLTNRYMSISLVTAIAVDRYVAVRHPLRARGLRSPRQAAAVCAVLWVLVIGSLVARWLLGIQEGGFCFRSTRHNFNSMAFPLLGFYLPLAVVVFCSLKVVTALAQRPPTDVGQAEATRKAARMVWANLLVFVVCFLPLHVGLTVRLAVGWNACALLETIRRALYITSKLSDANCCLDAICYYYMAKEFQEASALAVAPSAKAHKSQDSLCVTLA
method description: GPR35 internalization by flow cytometry in NCM460 cells
reported property: EC50 (µM)
Give a bare numeral; the unit µM is implied.

Form field EC50, entry "O=C(O)c1cc(=O)c2ccccc2[nH]1" : 46.2
